experiment: growth inhibitors of H69AR lung tumor, primary screen, human, duplicate replicates (AID 580); details: H69AR lung tumor cells viability, ATP luminescence, 72 h; at 10 µM; stronger effect = lower value;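 note: 100% = mean luminescence of untreated wells and 0% = no signal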
Assay readout: viability (%)
Field format: number, assumed %, no unit text.

Reference set, count: 10
Molecule	viability (%)
CCN1C(=O)CC(N2CCC(Nc3ccc(F)cc3)CC2)C1=O (stereo unspecified)	92.3
Cc1c(NC(=O)C(C)Oc2ncnc3ccccc23)c(=O)n(-c2ccccc2)n1C (stereo unspecified)	97
O=C(NC1CCCCCC1)C1CCCN(S(=O)(=O)c2cccs2)C1 (stereo unspecified)	105
COc1ccccc1Cn1c(-c2ccco2)nc2nc3ccccc3nc21	59.9
CCOC(=O)CSc1nnc(CNC(=O)c2ccc(OC)c(OC)c2)n1C	95.7
Cc1ccc2c(c1)nnn2C1CCN(C(=O)NC23CC4CC(CC(C4)C2)C3)CC1	92.1
O=C(Nc1ccccc1)N1CCC(c2ccccc2)C1 (stereo unspecified)	86.7
COc1ccc(C)cc1-n1nnnc1SC/C(O)=C(\C#N)c1nc2ccccc2[nH]1	85.2
Cc1cnc(C(=O)Nc2ccc(N3CCN(C(=O)OC(C)(C)C)CC3)cc2)cn1	115
Cc1nn(Cc2ccccc2)c(C)c1NC(=O)CCC(=O)O	89.4

Input CCOC(=O)Cc1csc(NC(=O)CSc2nnc(C)n2C)n1 . Output viability: 95.2

* * *

Here the recorded viability is given for each entry.
experiment: reducers of endogenous Her2 protein level, primary screen, SKBR3 breast tumor cells, AlphaScreen, ATP viability (AID 461); conditions: 18-24 h, measured here: SKBR3 viability, ATP luminescence, at 10 µM;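 note: percent of carrier control wells set as 100% viability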
Answer with the value and then the unit.

Molecule	viability
COc1cccc(C(=O)Nc2c(C(N)=O)oc3ccccc23)c1	86.5%
Oc1ccc(N2CCN(C(c3ccncc3)c3nnnn3C3CCCC3)CC2)cc1 (stereo not given)	76%
CSc1nc2ccc(Nc3nc(N4CCOCC4)nc(N4CCOCC4)n3)cc2s1	62.5%
Cc1ccc(CNC(=O)CCCn2c(=O)c3ccccc3n(CC(=O)NCc3ccco3)c2=O)cc1	90.5%

Pending molecule:
Input COc1ccc(OCC(=O)N2CCN(C(=O)COc3ccc(Br)cc3)CC2)cc1 . Output viability: 84.5%

* * *

assay: reversal of MRP1-mediated doxorubicin resistance, pilot screen, H69AR cells, doxorubicin co-treatment (AID 601); conditions: H69AR cells + 2 uM doxorubicin, CellTiter-Glo, 72 h; at 10 µM; stronger effect = higher value
Assay readout: differential viability (reversal) (%)
Field format: number, assumed %, no unit text.

Reference set, count: 8
Molecule	differential viability (reversal) / %
O=C(NCc1ccco1)C1Cc2ccccc2CN1S(=O)(=O)c1ccccc1F (stereo unspecified)	-9.23
CC(C)Cn1c2c(c(O)c(C(=O)Nc3ncccc3O)c1=O)CCCC2	-10.7
COc1ccc(C(=O)N2CCN(C3CCCCC3)CC2)c(OC)c1	0.4
Cc1cc(NC(=O)COc2ncnc3sc(C)c(C)c23)no1	3.08
CN/C=C1\C(=O)C(C)(C)Oc2ccc3ccc(=O)oc3c21	0.24
COc1cc(C(=O)OCc2cc3ccccc3[nH]c2=O)cc(OC)c1OC	11.3
O=C1c2cccnc2C(=O)N1c1cccc(-c2nc3ccccc3o2)c1	6.53
CCOC(=O)c1cc2ccc(OC)c(OC)c2c(=O)s1	-0.1

Input CC(=O)OC1CSc2nc3ccccc3n2C1 (stereo unspecified) . Output differential viability (reversal): 7.46

Input O=c1cc(CSc2nnc(COc3ccc(Cl)cc3)o2)c2ccccc2[nH]1 . Output differential viability (reversal): -2.67

Input O=C1CC(c2ccccc2)Cc2nc(N3CCc4ccccc43)ncc21 (stereo unspecified) . Output differential viability (reversal): 12

* * *

assay: reversal of MRP1-mediated doxorubicin resistance, pilot screen, H69AR cells, doxorubicin co-treatment (AID 601); conditions: H69AR cells + 2 uM doxorubicin, CellTiter-Glo, 72 h; measured here: viability with 2 uM doxorubicin; at 10 µM; stronger effect = lower value
Here the recorded viability is given for each entry.
Field format: number, assumed %, no unit text.

Molecule	Assay readout	Measured
CC1CCN(C(=O)c2ccc(C(=O)N3CCC(C)CC3)cc2)CC1	viability	95.4
CSc1ccccc1C(=O)NC1CC2CCC1C2 (centres undefined)	viability	87.2

Pending molecule:
Input Cc1nnc(SCc2cccc(Oc3ccccc3)c2)n1N . Output viability: 94.4

* * *

test: reversal of MRP1-mediated doxorubicin resistance, pilot screen, H69AR cells, doxorubicin co-treatment (AID 601); conditions: H69AR cells + 2 uM doxorubicin, CellTiter-Glo, 72 h; at 10 µM; stronger effect = higher value
Calls of active or inactive are those of the source.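 Rule for the calls: active = viability loss from added drug above about 55%, and viability with drug at most 40%, in both replicates (limit read from the data, passing the limit was not always enough); inconclusive = both conditions met in only one replicate; inactive = neither replicate meets both conditions.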
Assay readout: differential viability (reversal)

Reference set, count: 3
Molecule	Assay readout	Measured
CC(C)(Oc1ccc(CCNC(=O)c2ccc(Cl)cc2)cc1)C(=O)O	differential viability (reversal)	8.17% (inactive)
CO/C([O-])=N/c1c[n+](-c2ccc(C)cc2)no1	differential viability (reversal)	-0.875% (inactive)
CN(C)c1ccc(C2C3=C(CCCC3=O)OC3=C2C(=O)CCC3)cc1	differential viability (reversal)	2.78% (inactive)

Input O=C1OCCC1Sc1ncnc2sccc12 (stereo unspecified) . Output differential viability (reversal): 21.8% (inactive)

Input CCOC(=O)C1CCCN(C(=O)c2cc3c(-c4cccc(OC)c4)nn(C)c3s2)C1 (stereo unspecified) . Output differential viability (reversal): -69% (inactive)

* * *

Here the recorded inhibition is given for each entry.
assay: 384-well plate pilot, post-Golgi transport modulator project, inhibition of yeast transport mutant growth (AID 636); details: absorbance 615 nm, about 18 h, stronger effect = higher value
Field format: number, assumed %, no unit text.

Reference set, count: 10
Compound	inhibition [%]
Cc1cccc(OCC(=O)Nc2cc(C)ccc2O)c1	-6.16
Cc1cc(=O)c2n(Cc3ccccc3Cl)nc[n+]2[nH]1	-4.4
CCN1CCN(C(=O)c2cn(CCOC)c(=O)c3c2c2ccccc2n3C)CC1	-2.86
C=CCNc1nnc(SC2CC(=O)N(c3ccc(OC)cc3)C2=O)s1 (stereo not drawn)	-1.92
CCOP(=O)(c1ccc(N(C)C)cc1)C(O)c1c(Cl)cccc1Cl (stereo not drawn)	-1.6
COc1ccc(C2C3=C(OC(C)=O)c4ccccc4C3=Nc3c2c(=O)n(C)c(=O)n3C)cc1 (stereo not drawn)	-4
Cc1occc1C(=O)Nc1nnc(C2CCCCC2)s1	-2.74
O=C(c1ccncc1)N1CCN(C(=O)c2cccs2)CC1	-1.73
O=C(NCc1cccnc1)c1cccc(C(F)(F)F)c1	-5.34
CN(C)CCOC(=O)C(c1ccccc1)C1(O)CCCC1 (stereo not drawn)	-1.43

Input CC1(C)CC(=O)C=C(NC2CCS(=O)(=O)C2)C1 (stereo not drawn) . Output inhibition: 0

Input CSc1nnc(-c2ccccc2)n1C . Output inhibition: -8.36

* * *

test: 384-well plate pilot, post-Golgi transport modulator project, inhibition of yeast transport mutant growth (AID 636); conditions: absorbance 615 nm, about 18 h, stronger effect = higher value
Assay readout: inhibition (%)
Field format: number, assumed %, no unit text.

Input O=C(CSc1nnc(-c2ccncc2)o1)Oc1ccccc1 . Output inhibition: -6.4

Input Cn1c(SCc2c(F)cccc2Cl)nnc1-c1cccs1 . Output inhibition: -1.33

Input O=C(CSc1nnc(-c2ccc(Br)cc2)n1C1CCCCC1)N1CCCC1 . Output inhibition: -6.58

Input COc1ccc(OC)c(-c2cc(C(=O)NCc3cccs3)no2)c1 . Output inhibition: -2.6

Input O=C(Nc1ccc(S(=O)(=O)Nc2ccc(Cl)cc2)cc1)C1CCCO1 (configuration not stated) . Output inhibition: -6

Input NC(=O)OCC(COC(N)=O)c1ccccc1 . Output inhibition: -0.13

Input CCn1cc(C2Nc3ccccc3C(=O)N2O)c(C)n1 (configuration not stated) . Output inhibition: -5.27

Input CC(=O)Nc1nc(=S)ss1 . Output inhibition: -1.3

* * *

Here the recorded inhibition is given for each entry.
experiment: 384-well plate pilot, post-Golgi transport modulator project, inhibition of yeast transport mutant growth (AID 636); details: absorbance 615 nm, about 18 h, stronger effect = higher value
Field format: number, assumed %, no unit text.

Reference set, count: 9
Compound	inhibition / %
COc1ccc(CN2C(=O)c3ccccc3C2C(=O)NC2CCCC2)c(OC)c1 (stereo not given)	0.53
CC(=O)Nc1c(C(=O)O)[nH]c2ccccc12	-4.46
CCOC(=O)CSc1nc2cc(C(=O)N3CCC(C(N)=O)CC3)ccc2c(=O)n1-c1ccccc1	-3.95
Cc1ccc(-c2nnc(-c3ccc(Br)cc3)o2)o1	-5.87
CCOc1cc(C(=O)Nc2c3c(nn2C(C)(C)C)CS(=O)C3)cc(OCC)c1OCC (stereo not given)	-1.04
O=C(CCn1c(=O)c2ccccc2n(CC(=O)NCCC2=CCCCC2)c1=O)NCc1ccco1	-5.06
COc1cccc(C(=O)CSc2nnc(COc3cccc4cccnc34)o2)c1	4.87
O=C(CSc1nnc(-c2ccccn2)n1Cc1ccccc1)N1CCCC1	-8.67
CCCCOc1ccc(C(=O)Nc2ccc(N3CCN(C(=O)C(C)C)CC3)cc2)cc1	-3.55

Pending compound:
Input CCc1ccccc1NC(=O)CSC1=C(C#N)C(c2ccc(O)c(OC)c2)C2=C(CCCC2=O)N1 (stereo not given) . Output inhibition: -8.08
